Give IC50 for every item shown.
- Assay Target: cytochrome CYP3A4 enzyme (Homo sapiens, UniProt P08684)
- Sequence (P08684 whole entry): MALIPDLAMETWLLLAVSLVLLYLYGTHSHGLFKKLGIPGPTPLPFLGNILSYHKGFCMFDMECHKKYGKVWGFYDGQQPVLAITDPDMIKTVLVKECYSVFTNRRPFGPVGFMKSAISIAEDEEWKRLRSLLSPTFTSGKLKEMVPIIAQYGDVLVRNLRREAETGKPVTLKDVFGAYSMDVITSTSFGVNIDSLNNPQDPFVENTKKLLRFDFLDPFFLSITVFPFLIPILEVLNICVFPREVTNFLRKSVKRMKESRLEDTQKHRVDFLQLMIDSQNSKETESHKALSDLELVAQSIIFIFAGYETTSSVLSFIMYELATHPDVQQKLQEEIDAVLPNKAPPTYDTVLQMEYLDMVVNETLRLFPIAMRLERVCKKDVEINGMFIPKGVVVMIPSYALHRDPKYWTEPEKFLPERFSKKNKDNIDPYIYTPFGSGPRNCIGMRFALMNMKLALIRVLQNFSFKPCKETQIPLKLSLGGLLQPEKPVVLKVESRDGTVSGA
Write the figure, then the unit, nothing else.

CC1OC(OC2C(O)C(OCCc3ccc(O)c(O)c3)OC(CO)C2OC(=O)C=Cc2ccc(O)c(O)c2)C(O)C(O)C1O (centres unmarked) [Compound 2] = 43.3 µM

Below: the item to evaluate.
Challenge: I'm curious: which IC50 was measured for CC1OC(OC2C(O)C(CO)OC(OCCc3ccc(O)c(O)c3)C2O)C(O)C(O)C1OC(=O)C=Cc1ccc(O)c(O)c1 (centres unmarked) [Compound 6] tested on cytochrome CYP3A4 enzyme (Homo sapiens, UniProt P08684)?
Response given: 15.1 µM

This collection of values is drawn from paper PMC6270160.
